System: 817829-284-R-J1-PDC complex spheroids, viability
Experiment summary: Anticancer human tumor 817829-284-R-J1-PDC patient-derived colon adenocarcinoma cell line growth inhibition [CLK]
Protocol conditions: second compound 1 µM; first compound 0.03 µM; stronger effect = lower value
Readout name: viability, T/C (%)
Express your answer in %, writing the number without its unit.

// known answers, use as guide
# Compound, viability, T/C, %
data = [
    ("CC(C)CC(NC(=O)C(Cc1ccccc1)NC(=O)c1cnccn1)B(O)O (centres undefined) + CN1CCN(c2cc(C(=O)Nc3cc4cc(-c5cnn(C)c5)ccc4cn3)ccn2)CC1", 0.04),
    ("CC(C)CC(NC(=O)C(Cc1ccccc1)NC(=O)c1cnccn1)B(O)O (centres undefined) + CNC(=O)c1ccc(Nc2nc(OC3CCCC3)c3c(-c4ccc5nc(C)oc5c4)c[nH]c3n2)c(OC)c1", 0.09),
    ("NC(=O)C(=Cn1cnc(-c2cc(C(F)(F)F)cc(C(F)(F)F)c2)n1)c1cncnc1 + CN1CCN(c2cc(C(=O)Nc3cc4cc(-c5cnn(C)c5)ccc4cn3)ccn2)CC1", 0.09),
]

# context switch: different compound, same viability, T/C
Prompt: // lookup viability, T/C for C=CC(=O)Nc1cc(Nc2nccc(-c3cn(C)c4ccccc34)n2)c(OC)cc1N(C)CCN(C)C + CN1CCN(c2cc(C(=O)Nc3cc4cc(-c5cnn(C)c5)ccc4cn3)ccn2)CC1
Completion: 0.09

====

Tested on: 817829-284-R-J1-PDC complex spheroids, viability
Experiment summary: Anticancer human tumor 817829-284-R-J1-PDC cell line growth inhibition [CLK];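 note: spheroids exposed to the agents for seven days before readout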
Protocol conditions: second compound 0.0316 µM; first compound 0.01 µM; stronger effect = lower value
Readout name: viability, T/C (%)
Could you give me the number in %? Just the number is fine.

As a guide, the following entries are already answered.
# Compound, viability, T/C [%]
records = [
    ("CCN1CCN(Cc2ccc(Nc3ncc(F)c(-c4cc(F)c5nc(C)n(C(C)C)c5c4)n3)nc2)CC1 + CN1CCN(c2cc(C(=O)Nc3cc4cc(-c5cnn(C)c5)ccc4cn3)ccn2)CC1", 64.4),
    ("CCc1c2c(nc3ccc(O)cc13)-c1cc3c(c(=O)n1C2)COC(=O)[C@]3(O)CC + CN1CCN(c2cc(C(=O)Nc3cc4cc(-c5cnn(C)c5)ccc4cn3)ccn2)CC1", 14.8),
]

Field: next compound
Prompt: Dear colleague, I am looking for the recorded viability, T/C of the following compound: Cn1ncnc1[C@H]1c2n[nH]c(=O)c3cc(F)cc(c23)N[C@@H]1c1ccc(F)cc1 + CNC(=O)c1ccc(Nc2nc(OC3CCCC3)c3c(-c4ccc5nc(C)oc5c4)c[nH]c3n2)c(OC)c1
Completion: 31.1

====

Test system: 817829-284-R-J1-PDC complex spheroids, viability
Experiment summary: Anticancer human tumor 817829-284-R-J1-PDC cell line growth inhibition [CLK];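 note: spheroids exposed to the agents for seven days before readout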
Protocol conditions: second compound 0.0316 µM; first compound 3.16 µM; stronger effect = lower value
Catalogue of viability, T/C readings, one per entry.
Give the number; % is assumed, so skip it.

Prompt: Missing value: viability, T/C, 817829-284-R-J1-PDC complex spheroids, viability, entry O=c1[nH]cc(F)c(=O)[nH]1 + CN1CCN(c2cc(C(=O)Nc3cc4cc(-c5cnn(C)c5)ccc4cn3)ccn2)CC1 . Fill in?
Completion: 33.8

Prompt: Requested read-out viability, T/C, target or system 817829-284-R-J1-PDC complex spheroids, viability, entry C#Cc1c(F)ccc2cc(O)cc(-c3ncc4c(N5CC6CCC(C5)N6)nc(OCC56CCCN5CC(F)C6)nc4c3F)c12 (stereo not given) + CNC(=O)c1ccc(Nc2nc(OC3CCCC3)c3c(-c4ccc5nc(C)oc5c4)c[nH]c3n2)c(OC)c1
Completion: 19.7

Prompt: Return viability, T/C measured with 817829-284-R-J1-PDC complex spheroids, viability given this molecule: COc1ccc([C@@H](O)c2cc(-c3ncnc4cc(N5CCOCC5)ccc34)c(F)cc2Cl)nn1 + CN1CCN(c2cc(C(=O)Nc3cc4cc(-c5cnn(C)c5)ccc4cn3)ccn2)CC1
Completion: 19.4

====

System: 817829-284-R-J1-PDC complex spheroids, viability
Experiment summary: Anticancer human tumor 817829-284-R-J1-PDC cell line growth inhibition [CLK];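 note: spheroids exposed to the agents for seven days before readout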
Protocol conditions: second compound 0.316 µM; first compound 0.1 µM; stronger effect = lower value
Readout name: viability, T/C (%)
# number only, unit % dropped from output

Solved cases (5 shown):
# Molecule, viability, T/C / %
data = [
    ("C=C(F)C(=O)N1CCN(c2nc(OCC3CCCN3C)nc3c2CCN(c2cccc4cccc(Cl)c24)C3)CC1CC#N (stereo not given) + CNC(=O)c1ccc(Nc2nc(OC3CCCC3)c3c(-c4ccc5nc(C)oc5c4)c[nH]c3n2)c(OC)c1", 25.3),
    ("CC(Nc1ccc2c(c1)OCCn1cc(N3C(=O)OCC3C(F)F)nc1-2)C(N)=O (stereo not given) + CNC(=O)c1ccc(Nc2nc(OC3CCCC3)c3c(-c4ccc5nc(C)oc5c4)c[nH]c3n2)c(OC)c1", 19.6),
    ("C=CC(=O)N1CCN(c2nc(=O)n(-c3c(C)ccnc3C(C)C)c3nc(-c4c(O)cccc4F)c(F)cc23)C(C)C1 (stereo not given) + CN1CCN(c2cc(C(=O)Nc3cc4cc(-c5cnn(C)c5)ccc4cn3)ccn2)CC1", 2.73),
    ("C#Cc1c(F)ccc2cc(O)cc(-c3ncc4c(N5CC6CCC(C5)N6)nc(OCC56CCCN5CC(F)C6)nc4c3F)c12 (stereo not given) + CNC(=O)c1ccc(Nc2nc(OC3CCCC3)c3c(-c4ccc5nc(C)oc5c4)c[nH]c3n2)c(OC)c1", 20.1),
    ("CCCS(=O)(=O)Nc1ccc(F)c(C(=O)c2c[nH]c3ncc(-c4ccc(Cl)cc4)cc23)c1F + CN1CCN(c2cc(C(=O)Nc3cc4cc(-c5cnn(C)c5)ccc4cn3)ccn2)CC1", 1.67),
]

Shifting focus to the molecule that follows.
Prompt: Reported viability, T/C for 817829-284-R-J1-PDC complex spheroids, viability, given COc1cccc2c1C(=O)c1c(O)c3c(c(O)c1C2=O)CC(O)(C(=O)CO)CC3OC1CC(N)C(O)C(C)O1 (stereo not given) + CN1CCN(c2cc(C(=O)Nc3cc4cc(-c5cnn(C)c5)ccc4cn3)ccn2)CC1 ?
Completion: 0.69

====

Test system: 817829-284-R-J1-PDC complex spheroids, viability
Experiment summary: Anticancer human tumor 817829-284-R-J1-PDC cell line growth inhibition [CLK];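 note: spheroids exposed to the agents for seven days before readout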
Protocol conditions: second compound 0.316 µM; first compound 0.1 µM; stronger effect = lower value
Catalogue of compounds with associated viability, T/C
Report as a plain number; the unit % is understood.

Consider the following illustrative entries.
# Compound, Units symbol, viability, T/C
measured = [
    ("CC(Nc1ccc2c(c1)OCCn1cc(N3C(=O)OCC3C(F)F)nc1-2)C(N)=O (stereo not drawn) + CN1CCN(c2cc(C(=O)Nc3cc4cc(-c5cnn(C)c5)ccc4cn3)ccn2)CC1", "%", 1.34),
    ("Nc1ccccc1NC(=O)c1ccc(CNC(=O)OCc2cccnc2)cc1 + CN1CCN(c2cc(C(=O)Nc3cc4cc(-c5cnn(C)c5)ccc4cn3)ccn2)CC1", "%", 1.54),
]

Here is the next item to consider.
Prompt: Which viability, T/C reading was recorded for the compound CC(CO)NC(=O)c1cc(-c2ccc(Cl)cc2)nn(-c2cnn(C)c2)c1=O (stereo not drawn) + CNC(=O)c1ccc(Nc2nc(OC3CCCC3)c3c(-c4ccc5nc(C)oc5c4)c[nH]c3n2)c(OC)c1 ?
Completion: 29.7

====

Test system: 817829-284-R-J1-PDC complex spheroids, viability
Experiment summary: Anticancer human tumor 817829-284-R-J1-PDC cell line growth inhibition [CLK];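 note: spheroids exposed to the agents for seven days before readout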
Protocol conditions: second compound 0.316 µM; first compound 1 µM; stronger effect = lower value
molecules and their reported viability, T/C
Give the quantity in %, number only.

Known results for molecules:
# Molecule, Measured on, viability, T/C (%)
measured = [
    ("CC(CO)NC(=O)c1cc(-c2ccc(Cl)cc2)nn(-c2cnn(C)c2)c1=O (stereo not given) + CN1CCN(c2cc(C(=O)Nc3cc4cc(-c5cnn(C)c5)ccc4cn3)ccn2)CC1", "817829-284-R-J1-PDC complex spheroids, viability", 2.67),
    ("Nc1ccccc1NC(=O)c1ccc(CNC(=O)OCc2cccnc2)cc1 + CN1CCN(c2cc(C(=O)Nc3cc4cc(-c5cnn(C)c5)ccc4cn3)ccn2)CC1", "817829-284-R-J1-PDC complex spheroids, viability", 0.56),
    ("O=C(c1cc(Cc2n[nH]c(=O)c3ccccc23)ccc1F)N1CCN(C(=O)C2CC2)CC1 + CNC(=O)c1ccc(Nc2nc(OC3CCCC3)c3c(-c4ccc5nc(C)oc5c4)c[nH]c3n2)c(OC)c1", "817829-284-R-J1-PDC complex spheroids, viability", 31.5),
    ("COc1c(OCCCN2CCOCC2)ccc2c3n(c(=NC(=O)c4cnc(N)nc4)nc12)CCN3 + CN1CCN(c2cc(C(=O)Nc3cc4cc(-c5cnn(C)c5)ccc4cn3)ccn2)CC1", "817829-284-R-J1-PDC complex spheroids, viability", 0.47),
    ("CC1COCCN1c1cc(C2(S(C)(=N)=O)CC2)nc(-c2ccnc3[nH]ccc23)n1 (stereo not given) + CN1CCN(c2cc(C(=O)Nc3cc4cc(-c5cnn(C)c5)ccc4cn3)ccn2)CC1", "817829-284-R-J1-PDC complex spheroids, viability", 2.08),
    ("C=C(F)C(=O)N1CCN(c2nc(OCC3CCCN3C)nc3c2CCN(c2cccc4cccc(Cl)c24)C3)CC1CC#N (stereo not given) + CN1CCN(c2cc(C(=O)Nc3cc4cc(-c5cnn(C)c5)ccc4cn3)ccn2)CC1", "817829-284-R-J1-PDC complex spheroids, viability", 2.59),
]

Prompt: Record request: viability, T/C value, item CC(Nc1ccc2c(c1)OCCn1cc(N3C(=O)OCC3C(F)F)nc1-2)C(N)=O (stereo not given) + CNC(=O)c1ccc(Nc2nc(OC3CCCC3)c3c(-c4ccc5nc(C)oc5c4)c[nH]c3n2)c(OC)c1
Completion: 21.6

Prompt: Which viability, T/C reading was recorded for the molecule COC1C=CCC(C)C(C)S(=O)(=O)NC(=O)c2ccc3c(c2)N(CC2CCC21)CC1(CCCc2cc(Cl)ccc21)CO3 (stereo not given) + CNC(=O)c1ccc(Nc2nc(OC3CCCC3)c3c(-c4ccc5nc(C)oc5c4)c[nH]c3n2)c(OC)c1 ?
Completion: 12.6

Prompt: Which viability, T/C is listed for CC(Nc1ccc2c(c1)OCCn1cc(N3C(=O)OCC3C(F)F)nc1-2)C(N)=O (stereo not given) + CN1CCN(c2cc(C(=O)Nc3cc4cc(-c5cnn(C)c5)ccc4cn3)ccn2)CC1 ?
Completion: 0.83

Prompt: Query: viability, T/C; subject: CC1(C)CCC(CN2CCN(c3ccc(C(=O)NS(=O)(=O)c4ccc(NCC5CCOCC5)c([N+](=O)[O-])c4)c(Oc4cnc5[nH]ccc5c4)c3)CC2)=C(c2ccc(Cl)cc2)C1 + CN1CCN(c2cc(C(=O)Nc3cc4cc(-c5cnn(C)c5)ccc4cn3)ccn2)CC1
Completion: 2.48

Prompt: Entry under review: O=c1[nH]cc(F)c(=O)[nH]1 + CNC(=O)c1ccc(Nc2nc(OC3CCCC3)c3c(-c4ccc5nc(C)oc5c4)c[nH]c3n2)c(OC)c1 . Reported viability, T/C?
Completion: 23.1

Prompt: Which viability, T/C is reported for this molecule? COc1c(OCCCN2CCOCC2)ccc2c3n(c(=NC(=O)c4cnc(N)nc4)nc12)CCN3 + CNC(=O)c1ccc(Nc2nc(OC3CCCC3)c3c(-c4ccc5nc(C)oc5c4)c[nH]c3n2)c(OC)c1
Completion: 2.08

Prompt: Entry C=C(F)C(=O)N1CCN(c2nc(OCC3CCCN3C)nc3c2CCN(c2cccc4cccc(Cl)c24)C3)CC1CC#N (stereo not given) + CNC(=O)c1ccc(Nc2nc(OC3CCCC3)c3c(-c4ccc5nc(C)oc5c4)c[nH]c3n2)c(OC)c1 : reported viability, T/C = ?
Completion: 24.5

Prompt: Fill in: viability, T/C of CC(=O)O[C@H]1C(=O)[C@@]2(C)[C@H]([C@H](OC(=O)c3ccccc3)[C@]3(O)C[C@H](OC(=O)[C@H](O)[C@@H](NC(=O)c4ccccc4)c4ccccc4)C(C)=C1C3(C)C)[C@]1(OC(C)=O)CO[C@@H]1C[C@@H]2O + CNC(=O)c1ccc(Nc2nc(OC3CCCC3)c3c(-c4ccc5nc(C)oc5c4)c[nH]c3n2)c(OC)c1 is ___
Completion: 38.9

Prompt: Looking for the measured viability, T/C of COc1ccc([C@@H](O)c2cc(-c3ncnc4cc(N5CCOCC5)ccc34)c(F)cc2Cl)nn1 + CN1CCN(c2cc(C(=O)Nc3cc4cc(-c5cnn(C)c5)ccc4cn3)ccn2)CC1 , can you help?
Completion: 1.33

Prompt: Look up viability, T/C: C#Cc1c(F)ccc2cc(O)cc(-c3ncc4c(N5CC6CCC(C5)N6)nc(OCC56CCCN5CC(F)C6)nc4c3F)c12 (stereo not given) + CN1CCN(c2cc(C(=O)Nc3cc4cc(-c5cnn(C)c5)ccc4cn3)ccn2)CC1
Completion: 2.39

Prompt: # query: viability, T/C of entry CCN1CCN(Cc2ccc(Nc3ncc(F)c(-c4cc(F)c5nc(C)n(C(C)C)c5c4)n3)nc2)CC1 + CN1CCN(c2cc(C(=O)Nc3cc4cc(-c5cnn(C)c5)ccc4cn3)ccn2)CC1
Completion: 0.61

Prompt: Using the record for COC1C=CCC(C)C(C)S(=O)(=O)NC(=O)c2ccc3c(c2)N(CC2CCC21)CC1(CCCc2cc(Cl)ccc21)CO3 (stereo not given) + CN1CCN(c2cc(C(=O)Nc3cc4cc(-c5cnn(C)c5)ccc4cn3)ccn2)CC1 , report its viability, T/C.
Completion: 1.31

Prompt: Returns the measured viability, T/C for the input molecule. Input: CC(CO)NC(=O)c1cc(-c2ccc(Cl)cc2)nn(-c2cnn(C)c2)c1=O (stereo not given) + CNC(=O)c1ccc(Nc2nc(OC3CCCC3)c3c(-c4ccc5nc(C)oc5c4)c[nH]c3n2)c(OC)c1
Completion: 24.7

Prompt: Which viability, T/C is reported for this molecule? Nc1ccn(C2OC(CO)C(O)C2(F)F)c(=O)n1 (stereo not given) + CN1CCN(c2cc(C(=O)Nc3cc4cc(-c5cnn(C)c5)ccc4cn3)ccn2)CC1
Completion: 1.53

Recorded values, source PubChem BioAssay AID2060599.
